# Tested on: KM12
# Procedure text: NCI tumour cell line growth inhibition, 48 h
Active and inactive are the calls of the source. No stated cut-off is given here; in the data, active = GI50 up to about 1.1 µM and inactive = higher. Where a SMILES comes first, the peptide text is derived from it. Residues, ends and D or L forms follow the SMILES beside them. [ ]: non-standard residue; d: D form. *: point of attachment. Phe(4-NO2) = N[CH](Cc1ccc([N+](=O)[O-])cc1)C(=O)O; Pentanoyl = CCCCC(=O)*; Boc = CC(C)(C)OC(=O)*
Classes used: t (active), f (inactive)

>>> cat("O=C1c2cccc(NCCCNCCO)c2C(=O)c2cccc(NCCCNCCO)c21")
"f"
>>> cat("CC(=O)N(C(=O)CC(=O)NNCc1ccccc1Cl)c1ccc(Cl)cc1")
"f"
>>> cat("CC(C)(C)OCC1NC(=O)[C@@H]2Cc3c([nH]c4ccccc34)C(c3ccccc3)N2C1=O (some centres undefined)")
"f"
>>> cat("COc1cc2ccc(CC(=O)O)cc2cc1OC")
"f"
>>> cat("CC(NC(=O)C(Cc1ccc([N+](=O)[O-])cc1)NC(=O)C(N)CCCCN)C(=O)NC(Cc1ccc([N+](=O)[O-])cc1)C(N)=O (centres undefined) (H-K[Phe(4-NO2)]A[Phe(4-NO2)]-NH2; configuration not given here)")
"f"
>>> cat("O=c1cc[nH]c2ccc3nn[nH]c3c12")
"f"
>>> cat("O=C1C2C3C=C4c5ccccc5N(c5ccccc5)C4(C2C(=O)N1c1ccc([N+](=O)[O-])cc1)[C@H]1C(=O)N(c2ccc([N+](=O)[O-])cc2)C(=O)[C@@H]31 (some centres undefined)")
"f"
>>> cat("OCC(O)C(O)C(O)C1SC(c2ccccc2)=NN1c1ccccc1 (centres undefined)")
"f"
>>> cat("CC(=O)Nc1ccc(C2CC(c3ccc([N+](=O)[O-])cc3)=Nc3ccccc3S2)cc1 (centres undefined)")
"f"
>>> cat("CC12CCCCC1(C)C2Sc1ccccc1 (centres undefined)")
"f"
>>> cat("COC(=O)C(C(=O)C(=O)Nc1nc2ccc(OC)cc2s1)c1cnc2ccccc2n1 (centres undefined)")
"f"
>>> cat("CCN1C(=O)C/C(=C\\C(C)=O)Nc2ccccc21")
"f"
>>> cat("O=C(CSc1nnc(-c2ccc(/N=C\\c3ccc(Cl)cc3)cc2)o1)Nc1cccc(Cl)c1")
"f"
>>> cat("CCN(C1=CC(=O)NC2CCCCN12)c1ccccc1 (centres undefined)")
"f"
>>> cat("CCN(CC)CCCNc1nncc2c(C)c3[nH]c4ccc(OC)cc4c3cc12")
"t"
>>> cat("CCC1(N=[N+]=[N-])C(=O)c2ccccc2N(c2ccccc2)C1=O (centres undefined)")
"f"
>>> cat("ClC(Cl)[Si]12OCCN(CCO1)CCO2")
"f"
>>> cat("COc1cc(C2SCC(=O)N2c2ccc(-n3c(-c4ccccc4)nc4ccccc4c3=O)cc2)cc(OC)c1OC (centres undefined)")
"f"
>>> cat("CN(Cc1cnc2c(n1)C(N)=NN(N)N2)c1ccc(C(=O)NC(CCP(=O)(O)O)C(=O)O)cc1 (centres undefined)")
"f"
>>> cat("COC(=O)C1(O)CC(=O)CCC1c1ccc(OC)cc1 (centres undefined)")
"f"
>>> cat("COc1cc(C)c(C2NC(=O)c3ccccc3N2)cc1C (centres undefined)")
"t"
>>> cat("O=C1/C(=C\\c2ccccc2)CN(C(=O)CCN2CCCCC2)C/C1=C/c1ccccc1")
"t"
>>> cat("CCCCC(=O)Oc1ccc(CC(NC(=O)OC(C)(C)C)C(=O)NC(C)C(=O)NC(Cc2ccccc2)C(=O)NCC(N)=O)cc1 (centres undefined) (Boc-Y(Pentanoyl)AFG-NH2; configuration not given here)")
"f"
>>> cat("CC(=O)C1=CCC2c3[nH]c4ccccc4c3CCN2C1 (centres undefined)")
"f"
>>> cat("O[C@H]1[C@H](O)[C@@H](O)CN2CC[C@H](O)[C@H]12")
"f"
>>> cat("CC(=O)OCC1=C2C(OC(=O)C(C)C)CC3(COC(C)=O)OC3/C=C\\C3(C)OC3C2OC1=O (centres undefined)")
"f"
>>> cat("O=c1[nH][nH]c(=O)n1CCCCCCn1c(=O)[nH][nH]c1=O")
"f"
>>> cat("OC(COC(c1ccccc1)(c1ccccc1)c1ccccc1)C(O)CC1SCCS1 (centres undefined)")
"f"
>>> cat("COc1ccc2oc(C(=O)N3CC(CCl)c4ccc([N+](=O)[O-])cc43)cc2c1 (centres undefined)")
"t"
>>> cat("Clc1nc2c(-c3cccs3)ncnc2n1Cc1ccccc1")
"f"
>>> cat("O=c1c2cc(-c3ccccc3)sc2nc2sc(-c3ccccc3)nn12")
"f"
>>> cat("CN1CCN(CCSC2Cc3cc(Cl)ccc3Sc3ccccc32)CC1 (centres undefined)")
"f"
>>> cat("O=C(O)/C(=C/c1c(O)ccc2ccccc12)c1csc(-c2nc(/C(=C\\c3c(O)ccc4ccccc34)C(=O)O)cs2)n1")
"f"
>>> cat("COc1ccc(C2C(C#N)=C(O)NC(O)=C2C#N)cc1OC")
"f"
>>> cat("c1ccc(P(CCP(c2ccccn2)c2ccccn2)c2ccccc2)cc1")
"t"
>>> cat("CC1(C)[C@@H](Cn2ccc(=O)[nH]c2=O)CC[C@@]1(C)CO")
"f"
>>> cat("Cc1ccccc1N1C(=O)/C(=C/c2ccc(N(CCC#N)CCC#N)cc2)N=C1c1cc([N+](=O)[O-])ccc1Cl")
"f"
>>> cat("COC(=O)C(=O)C(C(=O)C(=O)Nc1ccc(Cl)cc1Cl)c1nc2ccc(Cl)cc2nc1O (centres undefined)")
"f"
>>> cat("COc1cc(/C=N\\N(C)C)cc(/C=N/N(C)C)c1O")
"f"
